Biological target: human V1a receptor (Homo sapiens)
Assay: Cellular in vitro assay for determining vasopressin receptor activity, V1a receptor cell line (CHO, aequorin luminescence)
Conditions: CHO cell line transfected with human V1a receptor; [Arg]-vasopressin at EC50 concentration; read-out: IC50 hV1a
What pIC50 was measured for each of the following?
One number for each entry, as −log10 of the molar value.

Hi team, please reply with pIC50 for each item in this list.
1. CC(C)(C)C(=O)Nc1ncccc1-n1cnc(Cn2nc(-c3ccc(Cl)cc3)n(C[C@H](O)C(F)(F)F)c2=O)n1 [Example 117]
2. O=C(NC1CC(F)(F)C1)c1cccc(C(F)(F)F)c1-n1cnc(Cn2nc(-c3ccc(Cl)cc3)n(C[C@H](O)C(F)(F)F)c2=O)n1 [Example 417]
3. O=C(c1ncccc1-n1cnc(Cn2nc(-c3ccc(Cl)cc3)n(C[C@H](O)C(F)(F)F)c2=O)n1)N1CCC(F)(F)C1 [Example 437]

Output:
7.18
7.43
7.39

Hi team, please reply with pIC50 for each item in this list.
1. O=C(Nc1cccnc1-n1cnc(Cn2nc(-c3ccc(Cl)cc3)n(C[C@H](O)C(F)(F)F)c2=O)n1)C1CCS(=O)(=O)C1 (single isomer, unassigned) [Example 52]
2. COCC1CCCN1C(=O)c1ccncc1-n1nc(Cn2nc(-c3ccc(Cl)cc3)n(C[C@H](O)C(F)(F)F)c2=O)nc1C(=O)N1CCNC(=O)C1 (mixture of isomers) [Example 516]

Output:
[7.94, 5.24]

Hi team, please reply with pIC50 for each item in this list.
1. CC1CCCC(C)N1C(=O)c1ccccc1-n1cnc(Cn2nc(-c3ccc(Cl)cc3)n(C[C@H](O)C(F)(F)F)c2=O)n1 (mixture of isomers) [Example 337]
2. O=C(N[C@H]1C[C@H]1F)c1ncccc1-n1cnc(Cn2nc(-c3ccc(Cl)cc3)n(C[C@H](O)C(F)(F)F)c2=O)n1 (racemic) [Example 435]
3. O=C(NCc1cccc(F)c1)c1ccccc1-n1cnc(Cn2nc(-c3ccc(Cl)cc3)n(C[C@H](O)C(F)(F)F)c2=O)n1 [Example 236]
4. NC(=O)[C@H]1CCCN1C(=O)c1ccccc1-n1cnc(Cn2nc(-c3ccc(Cl)cc3)n(C[C@H](O)C(F)(F)F)c2=O)n1 [Example 194]
5. O=C1CCC(NC(=O)c2ccccc2-n2cnc(Cn3nc(-c4ccc(Cl)cc4)n(CC(O)C(F)(F)F)c3=O)n2)CN1 (single isomer, unassigned) [Example 193]
6. O=C(NCCN1CCCC1=O)c1ccccc1-n1cnc(Cn2nc(-c3ccc(Cl)cc3)n(C[C@H](O)C(F)(F)F)c2=O)n1 [Example 177]

Output:
7.63
7.61
8.15
7.20
7.10
8.00

Hi team, please reply with pIC50 for each item in this list.
1. O=C(Nc1c(F)cc(F)cc1F)c1ccccc1-n1cnc(Cn2nc(-c3ccc(Cl)cc3)n(C[C@H](O)C(F)(F)F)c2=O)n1 [Example 317]
2. O=C(NCc1ccc(F)c(F)c1)c1ccccc1-n1cnc(Cn2nc(-c3ccc(Cl)cc3)n(C[C@H](O)C(F)(F)F)c2=O)n1 [Example 239]

Output:
[8.64, 8.13]

---

Biological target: human V1a receptor (Homo sapiens, UniProt P37288)
Construct: expressed in transfected cells; host or cells: CHO K1 (ATCC), also stably transfected with a modified aequorin
Sequence (P37288 whole entry): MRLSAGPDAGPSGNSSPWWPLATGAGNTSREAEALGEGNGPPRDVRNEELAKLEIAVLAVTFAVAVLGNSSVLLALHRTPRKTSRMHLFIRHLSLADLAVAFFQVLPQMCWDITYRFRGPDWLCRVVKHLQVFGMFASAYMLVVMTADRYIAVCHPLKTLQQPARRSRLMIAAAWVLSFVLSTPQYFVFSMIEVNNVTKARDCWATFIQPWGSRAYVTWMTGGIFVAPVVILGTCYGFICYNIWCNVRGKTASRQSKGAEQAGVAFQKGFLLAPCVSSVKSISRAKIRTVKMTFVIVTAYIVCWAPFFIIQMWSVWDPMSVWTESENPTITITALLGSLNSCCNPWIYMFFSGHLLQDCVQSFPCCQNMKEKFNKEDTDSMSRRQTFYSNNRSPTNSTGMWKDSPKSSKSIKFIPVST
Assay: Cellular in vitro assay for determining vasopressin receptor activity, V1a receptor cell line (CHO, aequorin luminescence)
Format: cell-based
Conditions: selectivity ratio IC50 hV2 / IC50 hV1a
Experimental Endpoint: ratio IC50 hV2/hV1a
Answers are plain numbers.

Example results:
Input: Quick one: ratio IC50 hV2/hV1a of CC1(NC(=O)c2ccncc2-n2cnc(Cn3nc(-c4ccc(Cl)cc4)n(C[C@H](O)C(F)(F)F)c3=O)n2)CC1 [Example 492] ?
Output: 244.4

Input: Thanks! And O=C(c1ncccc1-n1cnc(Cn2nc(-c3ccc(Cl)cc3)n(C[C@@H](O)C(F)(F)F)c2=O)n1)N1CCC(C(F)(F)F)C1 (mixture of isomers) [Example 480] ?
Output: 69.6

Next:
Input: Quick one: ratio IC50 hV2/hV1a of O=C(CC(F)(F)F)Nc1ccncc1-n1cnc(Cn2nc(-c3ccc(Cl)cc3)n(C[C@H](O)C(F)(F)F)c2=O)n1 [Example 27] ?
Output: 69.8

---

What IC50 was measured for each of the following?
Molecular target: human V1a receptor (Homo sapiens, UniProt P37288)
Test: Cellular in vitro assay for determining vasopressin receptor activity, V1a receptor cell line (CHO, aequorin luminescence)
Conditions: CHO cell line transfected with human V1a receptor; [Arg]-vasopressin at EC50 concentration; read-out: IC50 hV1a
Numbers only, in nM.

Input: Quick one: IC50 of O=C(NC1CC1F)c1cccnc1-n1cnc(Cn2nc(-c3ccc(Cl)cc3)n(C[C@H](O)C(F)(F)F)c2=O)n1 (mixture of isomers) [Example 503] ?
Output: 5.55

Input: Thanks! And O=C(Nc1cccnc1-n1cnc(Cn2nc(-c3ccc(Cl)cc3)n(C[C@H](O)C(F)(F)F)c2=O)n1)C1CC1F (single isomer, unassigned) [Example 56] ?
Output: 4.4

Input: Thanks! And O=C(NC1CC1)c1ccncc1-n1cnc(Cn2nc(-c3ccc(Cl)cc3)n(C[C@H](O)C(F)(F)F)c2=O)n1 [Example 488] ?
Output: 29

Input: Thanks! And O=C(Nc1ncccc1-n1cnc(Cn2nc(-c3ccc(Cl)cc3)n(C[C@H](O)C(F)(F)F)c2=O)n1)C1CC1F (single isomer, unassigned) [Example 78] ?
Output: 19.5

Input: Thanks! And O=C(NC1CC1)c1ccccc1-n1cnc(Cn2nc(-c3ccc(Cl)cc3)n(C[C@H](O)C(F)(F)F)c2=O)n1 [Example 340] ?
Output: 8.5

***
Input: Quick one: IC50 of O=C(CC(F)(F)F)Nc1ccncc1-n1cnc(Cn2nc(-c3ccc(Cl)cc3)n(C[C@H](O)C(F)(F)F)c2=O)n1 [Example 27] ?
Output: 4.05

---

Target: human V2 receptor (Homo sapiens, UniProt P30518)
Construct: expressed in transfected cells; host or cells: CHO K1 (ATCC) expressing firefly luciferase under a CRE-responsive promoter
Sequence (P30518 whole entry): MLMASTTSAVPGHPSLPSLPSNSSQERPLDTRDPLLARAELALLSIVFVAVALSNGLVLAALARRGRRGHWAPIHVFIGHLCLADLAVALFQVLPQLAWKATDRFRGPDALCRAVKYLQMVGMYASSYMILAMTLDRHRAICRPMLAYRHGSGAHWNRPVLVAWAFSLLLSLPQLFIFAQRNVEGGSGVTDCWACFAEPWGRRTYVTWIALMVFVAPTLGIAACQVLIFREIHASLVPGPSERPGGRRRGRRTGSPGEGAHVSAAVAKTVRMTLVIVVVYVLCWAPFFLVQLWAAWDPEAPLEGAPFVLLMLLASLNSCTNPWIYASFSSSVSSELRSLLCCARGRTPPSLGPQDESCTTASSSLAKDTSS
Experiment: Cellular in vitro assay for determining vasopressin receptor activity, V2 receptor cell line (CHO, CRE-luciferase)
Type: cell-based
Conditions: CHO cell line transfected with human V2 receptor; [Arg8]-vasopressin at EC50 concentration, 3 hours; read-out: IC50 hV2
What pIC50 was measured for each of the following?
Answers are plain numbers, as −log10 of the molar value.

Example results:
Input: Quick one: pIC50 of CCN(OC)C(=O)c1ccccc1-n1cnc(Cn2nc(-c3ccc(Cl)cc3)n(C[C@H](O)C(F)(F)F)c2=O)n1 ?
Output: 6.35

Input: Thanks! And CCN1CCN(C(=O)c2ccccc2-n2cnc(Cn3nc(-c4ccc(Cl)cc4)n(C[C@H](O)C(F)(F)F)c3=O)n2)CC1 ?
Output: 5.56

Input: Thanks! And CC1CCCN(C(=O)c2ccccc2-n2cnc(Cn3nc(-c4ccc(Cl)cc4)n(C[C@H](O)C(F)(F)F)c3=O)n2)C1C (mixture of isomers) ?
Output: 5.91

Input: Thanks! And O=C(NCc1ccncc1)c1ccccc1-n1cnc(Cn2nc(-c3ccc(Cl)cc3)n(C[C@H](O)C(F)(F)F)c2=O)n1 ?
Output: 5.48

Input: Thanks! And CC(C)CC(=O)Nc1ncccc1-n1cnc(Cn2nc(-c3ccc(Cl)cc3)n(C[C@H](O)C(F)(F)F)c2=O)n1 ?
Output: 6.59

Next:
Input: Quick one: pIC50 of Cc1cccc(NC(=O)c2ccccc2-n2cnc(Cn3nc(-c4ccc(Cl)cc4)n(C[C@H](O)C(F)(F)F)c3=O)n2)c1 ?
Output: 7.01

---

Biological target: human V2 receptor (Homo sapiens, UniProt P30518)
Construct: expressed in transfected cells; host or cells: CHO K1 (ATCC) expressing firefly luciferase under a CRE-responsive promoter
Test: Cellular in vitro assay for determining vasopressin receptor activity, V2 receptor cell line (CHO, CRE-luciferase)
Format: cell-based
Details: CHO cell line transfected with human V2 receptor; [Arg8]-vasopressin at EC50 concentration, 3 hours; read-out: IC50 hV2
Experimental: B-1. Cellular In Vitro Assay for Determining Vasopressin Receptor Activity The identification of agonists and antagonists of the V1a and V2 vasopressin receptors from humans, rats and dogs as well as the quantification of the activity of the compounds of the invention is carried out using recombinant cell lines. […] The bioluminescence of the cell lines is detected using a suitable luminometer [Milligan G, Marshall F, Rees S, Trends in Pharmacological Sciences 17, 235-237 (1996)]. […]
Experimental Endpoint: pIC50
Give bare numbers, as −log10 of the molar value.

Input: Quick one: pIC50 of O=C1CN(C(=O)c2ccccc2-n2cnc(Cn3nc(-c4ccc(Cl)cc4)n(C[C@H](O)C(F)(F)F)c3=O)n2)CN1 ?
Output: 5.57

Input: Thanks! And NC(=O)[C@@H]1CC(F)(F)CN1C(=O)c1cccc(Cl)c1-n1cnc(Cn2nc(-c3ccc(Cl)cc3)n(C[C@H](O)C(F)(F)F)c2=O)n1 ?
Output: 5.47

Input: Thanks! And Cc1cc(NC(=O)c2ccccc2-n2cnc(Cn3nc(-c4ccc(Cl)cc4)n(C[C@H](O)C(F)(F)F)c3=O)n2)ccc1F ?
Output: 6.82

Input: Thanks! And CC(O)CNC(=O)c1ccccc1-n1cnc(Cn2nc(-c3ccc(Cl)cc3)n(C[C@H](O)C(F)(F)F)c2=O)n1 (mixture of isomers) ?
Output: 7.19

Input: Thanks! And CC(C)C(=O)Nc1ncccc1-n1cnc(Cn2nc(-c3ccc(Cl)cc3)n(C[C@H](O)C(F)(F)F)c2=O)n1 ?
Output: 6.18

Hi team, please reply with pIC50 for each item in this list.
1. O=C(c1ccccc1-n1cnc(Cn2nc(-c3ccc(Cl)cc3)n(C[C@H](O)C(F)(F)F)c2=O)n1)N1CCOCC1
2. O=C(NCC(F)(F)F)Nc1cccnc1-n1cnc(Cn2nc(-c3ccc(Cl)cc3)n(C[C@H](O)C(F)(F)F)c2=O)n1

Output:
[5.67, 5.94]

Hi team, please reply with pIC50 for each item in this list.
1. O=C(NCCC(F)(F)F)c1ccccc1-n1cnc(Cn2nc(-c3ccc(Cl)cc3)n(C[C@H](O)C(F)(F)F)c2=O)n1
2. Cc1cnc(NC(=O)c2ccccc2-n2cnc(Cn3nc(-c4ccc(Cl)cc4)n(C[C@H](O)C(F)(F)F)c3=O)n2)s1

Output:
[5.69, 7.89]

The measured values listed here are drawn from patent US11173151B2.
